Assay: Pharmacokinetic study, 4ET-03-009 at 10 mg/kg oral
Type: in vivo, CD-1 male mice
Details: male, CD-1, mouse, plasma, po, 10 mg/kg, individual animals, read-out: AUC0-8 hours
Recorded Metric: AUC(0-t) (ng·h/mL)

Cc1cc(Nc2cc(NC(=O)C3CC3)ncn2)c(=O)n2c1C(=O)NC21CCOCC1 : 1120

----------
Assay: Liver microsome stability, mouse
Assay type: in vitro ADME
Details: Mouse liver microsomes (*); read-out: CLint rodent
Recorded Metric: microsomal CLint (µL/min/mg)

Cc1cc(Nc2cc(NC(=O)CN3CCOCC3)ncn2)c(=O)n2c1C(=O)NC21CCCCC1 : 8.7
Cc1cc(Nc2cc(NCCNS(C)(=O)=O)ncn2)c(=O)n2c1C(=O)NC21CCCCC1 : 2.5
Cc1cc(Nc2cc(N)ncn2)c(=O)n2c1C(=O)NC21CCC(O)CC1 (stereo not drawn) : 3.53

These measurements were taken from patent US20230286983A1.
